// reported abundance fitness per item
B1: Far upstream element-binding protein 3, residues 75 to 150; numbered along this chain, Q96I24 (parent)
chain: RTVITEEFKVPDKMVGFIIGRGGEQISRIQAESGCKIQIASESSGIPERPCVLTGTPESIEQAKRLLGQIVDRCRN

# Variants of: B1
# TEST DESCRIPTION: abundance fitness (aPCA) (normalised: wild type 0, dead -1); higher = more abundant; growth selection in yeast, the domain comes from the species named
# EXPERIMENTAL PARAMETERS: Homo sapiens

RTVITEEFKVPDKMVGFIIGRGGEQISRIQAESGCKIQVASESSGIPERPCVLTGTPESIEQAKRLLGQIVDRCRN [I39V]
-0.027
RTVITEEFKVPDDMVGFIIGRGGEQISRIQAESGCKIQIASESSGIPERPCVLTGTPESIEQAKRLLGQIVDRCRN [K13D]
-0.082
RTVITEEFKVPDKMVGFIIGRGGEQISRIQAESGCKIQIASESSGIPERPCVLTGTPEPIEQAKRLLGQIVDRCRN [S59P]
-0.866

Ask | Determine its reported abundance fitness: RTVITEEFKVPDKMVGFIIGRGGEQISRIQAEQGCKIQIASESSGIPERPCVLTGTPESIEQAKRLLGQIVDRCRN [S33Q]
Reply | -0.732

Ask | Give abundance fitness for the following variant: RTKITEEFKVPDKMVGFIIGRGGEQISRIQAESGCKIQIASESSGIPERPCVLTGTPESIEQAKRLLGQIVDRCRN [V3K]
Reply | -0.001

Ask | Please give measured abundance fitness of the following entry: RTVITEEFKVPDKMVGFIIGRGGEQISRIQAESGCKIQIASESSGIPERPCVLTGTPESIEQAKRLLDQIVDRCRN [G68D]
Reply | -0.001
